Quick record: IC50, Maltase-glucoamylase (Homo sapiens, UniProt O43451).

compound.structure.string	unit.text	relation.operator	IC50
OC[C@@H]1[C@@H](O)[C@H](O)[C@@H](O)CN1CCCCCOCc1ccc(-c2ccccc2)c(F)c1	µM	=	3
C[C@@H](OCCCCCN1C[C@H](O)[C@@H](O)[C@H](O)[C@H]1CO)c1ccc(-c2ccccc2)cc1	µM	=	4
OC[C@H]1[C@@H](O)[C@H](O)[C@@H](O)CN1CCCCCOCc1ccc(-c2ccccc2)c(C(F)(F)F)c1	µM	>	100
OC[C@@H]1[C@@H](O)[C@H](O)[C@@H](O)CN1CCCCCOCc1cccc(-c2ccccc2)c1	µM	=	1.5
OC[C@@H]1[C@@H](O)[C@H](O)[C@@H](O)CN1CCCCCOCc1ccc(-c2ccccc2)cc1F	µM	=	2.5
OC[C@H]1[C@@H](O)[C@H](O)[C@@H](O)CN1CCCC(F)(F)COCc1ccc(-c2ccccc2)cc1	µM	>	100
OC[C@H]1[C@@H](O)[C@H](O)[C@@H](O)CN1CCCCCOCc1ccc(-c2ccccc2)cc1C(F)(F)F	µM	>	100
C[C@H](OCCCCCN1C[C@H](O)[C@@H](O)[C@H](O)[C@@H]1CO)c1ccc(-c2ccccc2)cc1	µM	>	100

Reference source for all entries: ChEMBL document CHEMBL3352260
